Data origin: paper PMC9352680

Molecular target: T1, PUF4 RNA-binding domain (Saccharomyces cerevisiae, UniProt P25339 537-888)
T1 sequence: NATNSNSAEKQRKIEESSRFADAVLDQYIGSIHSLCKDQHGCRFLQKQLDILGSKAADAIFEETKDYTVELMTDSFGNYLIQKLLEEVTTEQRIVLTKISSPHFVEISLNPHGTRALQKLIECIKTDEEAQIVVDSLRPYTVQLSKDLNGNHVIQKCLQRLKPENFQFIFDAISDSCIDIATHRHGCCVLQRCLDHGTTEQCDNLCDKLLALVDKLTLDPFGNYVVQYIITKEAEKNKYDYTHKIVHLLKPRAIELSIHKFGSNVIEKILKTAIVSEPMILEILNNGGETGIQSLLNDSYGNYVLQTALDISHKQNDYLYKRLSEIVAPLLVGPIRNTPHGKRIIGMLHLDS
Assay: Mg; RNA-MaP; 20 mM Na-HEPES pH 7.4, 30 mM KOAc, 0.75 mM MgCl2, 0.1% Tween-20, 5% glycerol, 0.1 mg/mL BSA, 2 mM DTT; 25 C; 0.0125-409.6 nM protein
Settings: tags: N-His6-TEV cleaved; C-SNAP kept, Cy3B-labelled; label: tethered on chip by stalled RNA polymerase
quantity: pKd
Scale: pKd equals -log10([C]), with [C] in mol/L.

Study these solved cases before continuing.
| binder | quantity | endpoint result |
| --- | --- | --- |
| UCUCUUUCUUAUAUAUUACUUCUCUU (ssRNA) [Id_iii_S1_P4E.6_K4.2_C4.3_H4.2_A4.1_F4.1_T4.2_[G10C]] | pKd | 7.80 |
| Id_ii_S2_P4E.2_K4.1_C4.2_[C-2A]_H4.1_A4.1_F4.1_T4.2_[G10C] (ssRNA) RNA: UUUGAUUAAUAUGAUAUCGUUCUUUCUAUUGUAUAUUACUUUCUUUCUCGAUAUCAUAUUAAUCUUU | pKd | 8.95 |
| Id_ii_S2_P3E.4_K3.3_C3.2_[C-2T]_[T-1C]_H3.3_A3.1_F3.1_T3.2_[A10T] (ssRNA) RNA: UUUGAUUAAUAUGAUAUCGUUCUUUCUUCACACUAUAUUUUCUUUCUCGAUAUCAUAUUAAUCUUU | pKd | 6.03 |
| UCUCUUUGUAUAAUAAUCUCUU (ssRNA) [Ib_S1_P5E.1_K5.1_C5.1_H5.1_A5.1_[T6A]_F5.1_[T9A]_T5.1] | pKd | 8.77 |

Which pKd is listed for Ie_S2_P5E.1_K5.1_C5.1_H5.1_A5.1_[+6C]_F5.1_T5.1 (ssRNA) RNA: UUUGAUUAAUAUGAUAUCGUUCUUUCUUGUAUUCAUUAUUCUUUCUCGAUAUCAUAUUAAUCUUU ?
7.59
